system: NCI-H522 lung; test: NCI tumour cell line growth inhibition, 48 h
# GI50 per record follows

Chemical String: COc1cccc(/C(COc2ccc3c(c2)oc(=O)c2cc(OC)ccc23)=N/O)c1
GI50: 3120 nM

Chemical String: C[C@]12CC[C@@H]3c4ccc(O)cc4CC[C@H]3[C@@H]1CC[C@@H]2NS(=O)(=O)c1cccc(F)c1
GI50: 1890 nM

Chemical String: Cc1cc(N/N=C/c2nc(-c3ccc(Br)cc3)oc2C)c2cc(Br)ccc2n1
GI50: 2210 nM

Chemical String: O=C(/C=C/c1cc(CN2CCOCC2)c(O)c2ncccc12)c1cc(CN2CCOCC2)c(O)c2ncccc12
GI50: 20.8 nM

Chemical String: COc1ccc(-c2c[nH]c(=S)n2-c2ccc(OC)cc2)cc1
GI50: > 50000 nM

Chemical String: O=[N+]([O-])c1ccc2c(c1)C(c1ccccc1Cl)=Nc1cn[nH]c1N2
GI50: 15500 nM

Chemical String: O=C(COc1ccc(/C=C2\CSc3ccccc3C2=O)cc1)Nc1nccs1
GI50: 1920 nM

Chemical String: COc1ccc(-c2ccc(/C=N/n3c(C)n[nH]c3=S)o2)c([N+](=O)[O-])c1
GI50: > 100000 nM

Chemical String: [Au+].[Au+].[Au+].[c-]1nccn1Cc1ccccc1.[c-]1nccn1Cc1ccccc1.[c-]1nccn1Cc1ccccc1
GI50: 1580 nM

###

# GI50 per record follows
system: RPMI-8226 leukemia; assay: NCI tumour cell line growth inhibition, 48 h

Chemical String: C=C1C(=O)O[C@H]2[C@H]1CC/C(COC(=O)c1ccc(Cl)nc1)=C\CC[C@@]1(C)O[C@@H]21
System Tested: RPMI-8226 leukemia
GI50: 1580 nM
--
Chemical String: Cc1cc2c(cc1Cl)SC(=Nc1ccc(Cl)cc1)N(S(=O)(=O)c1ccccc1)S2(=O)=O
System Tested: RPMI-8226 leukemia
GI50: 2670 nM
--
Chemical String: CC(C)N=c1cc2n(-c3ccc(Cl)cc3)c3ccccc3nc-2cc1Nc1ccc(Cl)cc1
System Tested: RPMI-8226 leukemia
GI50: 821 nM
--
Chemical String: COc1cccc(/C(COc2ccc3c(c2)oc(=O)c2cc(OC)ccc23)=N/O)c1
System Tested: RPMI-8226 leukemia
GI50: 4760 nM
--
Chemical String: O=C(/C=C/c1cc(CN2CCOCC2)c(O)c2ncccc12)c1cc(CN2CCOCC2)c(O)c2ncccc12
System Tested: RPMI-8226 leukemia
GI50: 22.2 nM
--
Chemical String: COc1ccc2c(O)cc3c(c2c1)[C@H](CCl)CN3C(=O)c1cc2cc(NC(=O)CCN3CCOCC3)ccc2[se]1
System Tested: RPMI-8226 leukemia
GI50: 1.49 nM
--
Chemical String: CN(CCCNC(=O)Cc1ccc2ccc3cccc4ccc1c2c34)CCCNc1cc(-c2ccc3ccccc3c2)nc2ccccc12
System Tested: RPMI-8226 leukemia
GI50: 1220 nM
--
Chemical String: COc1cc(C2=C(c3cn(C)c4ccccc34)COC2=O)cc(OC)c1OC
System Tested: RPMI-8226 leukemia
GI50: 109 nM
--
Chemical String: COc1ccc(-c2c[nH]c(=S)n2-c2ccc(OC)cc2)cc1
System Tested: RPMI-8226 leukemia
GI50: 20400 nM
--
Chemical String: CCOC(=O)CNC(=O)c1ccccc1Nc1ccnc(C(F)(F)F)c1
System Tested: RPMI-8226 leukemia
GI50: 12700 nM
--
Chemical String: COc1cc2ncn(-c3cc(OCCc4ccccc4)c(C(N)=O)s3)c2cc1OC
System Tested: RPMI-8226 leukemia
GI50: > 25000 nM

###

tested on: SF-268 CNS; assay: NCI tumour cell line growth inhibition, 48 h; in the data active = GI50 below about 0.43 µM; inactive = the rest
Labels: label 1 (active), label 0 (inactive)

Chemical String: Oc1cn(-c2ccc(Cl)cc2)nc1-c1n[nH]c(=S)n1C1CCCCC1
System Tested: SF-268 CNS
Category Label: label 0
//
Chemical String: O=C(Nc1ccc(-n2cc(-c3ccncc3)c(-c3ccc(Cl)c(O)c3)n2)cc1)Nc1ccc(Cl)c(C(F)(F)F)c1
System Tested: SF-268 CNS
Category Label: label 0
//
Chemical String: COc1cc2ncn(-c3cc(OCCc4ccccc4)c(C(N)=O)s3)c2cc1OC
System Tested: SF-268 CNS
Category Label: label 0
//
Chemical String: NC(N)=NCCCCCNc1noc(Cc2c[nH]c3cc(Br)ccc23)n1
System Tested: SF-268 CNS
Category Label: label 0
//
Chemical String: CCC(C)(C)c1ccc(OCCCCCCN2CCNCC2)cc1
System Tested: SF-268 CNS
Category Label: label 0
//
Chemical String: O=C(Nc1ccc(CO)cc1)c1coc2ccccc2c1=O
System Tested: SF-268 CNS
Category Label: label 0
//
Chemical String: CCc1ccccc1NC(=O)c1sc2nc3c(cc2c1N)C(=O)CCC3
System Tested: SF-268 CNS
Category Label: label 0
//
Chemical String: CCn1c(CO)nn(-c2cc(O[C@@H](C)C(F)(F)F)c(C(=O)Nc3c(F)cccc3Cl)cc2F)c1=O
System Tested: SF-268 CNS
Category Label: label 1
//
Chemical String: COc1cccc(/C(COc2ccc3c(c2)oc(=O)c2cc(OC)ccc23)=N/O)c1
System Tested: SF-268 CNS
Category Label: label 0
//
Chemical String: COCCOc1cnc2ccn([C@H](C)c3nnc4c(F)cc(-c5cnn(C)c5)cn34)c(=O)c2c1
System Tested: SF-268 CNS
Category Label: label 0
//
Chemical String: CC(=O)O[C@H](C[C@H](C(C)C)N(C)C(=O)[C@@H](NC(=O)[C@H]1CCCCN1C)C(C)C)c1nc(C(=O)N[C@@H](Cc2ccccc2)C[C@H](C)C(=O)O)c(CCOCc2ccccc2)s1
System Tested: SF-268 CNS
Category Label: label 1
//
Chemical String: Cc1cn2c(/C=C3\C(=O)N(C)c4ccc(O)cc43)c(C)nc2s1
System Tested: SF-268 CNS
Category Label: label 0
//
Chemical String: COc1ccc(-c2ccc(/C=N/n3c(C)n[nH]c3=S)o2)c([N+](=O)[O-])c1
System Tested: SF-268 CNS
Category Label: label 0
//
Chemical String: CC(=O)/C=C/c1ccc(C#Cc2ccccc2)s1
System Tested: SF-268 CNS
Category Label: label 0
//
Chemical String: C[C@]12CC[C@@H]3c4ccc(O)cc4CC[C@H]3[C@@H]1CC[C@@H]2NS(=O)(=O)c1cccc(F)c1
System Tested: SF-268 CNS
Category Label: label 0

###

# TGI per record follows
system: SK-MEL-5 melanoma; assay: NCI tumour cell line growth inhibition, 48 h

Compound: COc1ccc(/C=N/N=C(\N)NO)c(O)c1
TGI: > 10 µM

Compound: CN(CCCNC(=O)Cc1ccc2ccc3cccc4ccc1c2c34)CCCNc1cc(-c2ccc3ccccc3c2)nc2ccccc12
TGI: 3.01 µM

Compound: CCN1C(=O)C(=C/C=C/c2ccc([N+](=O)[O-])cc2)C(=O)N(CC)C1=S
TGI: 42.8 µM

Compound: Nc1ccc(N=Nc2ccccc2)cc1
TGI: > 100 µM

Compound: C[n+]1cc(C(O)c2ccc3c(c2)OCO3)c2ccccc2c1 (stereo unspecified)
TGI: 44.2 µM

Compound: COC(=O)C1=CC(=O)OC1(OO)c1ccccc1 (stereo unspecified)
TGI: > 100 µM

Compound: O=c1oc2ccccc2c(Nc2ccc3c(c2)Oc2ccccc2O3)c1[N+](=O)[O-]
TGI: 45.3 µM

Compound: CC1=NN2C(=N)/C(=C/c3ccco3)C(=O)N=C2S1
TGI: > 100 µM

Compound: Cc1cc(C)c(C2[C@H]3C(=O)N(c4ccc(Cc5ccc(N6C(=O)[C@@H]7ON(c8ccccc8)C(c8c(C)cc(C)cc8C)[C@@H]7C6=O)cc5)cc4)C(=O)[C@H]3ON2c2ccccc2)c(C)c1 (stereo partly specified)
TGI: > 100 µM

Compound: CC(C)CCCC(C)[C@H]1CCC2[C@H]3C(CC[C@@]21C)[C@@]1(C)CCC=C[C@]12C[C@@H]2[C@@H]3O (stereo partly specified)
TGI: > 100 µM

Compound: COC(=O)[C@@H]1CCCN1CCN1CCC[C@H]1C(=O)OC
TGI: > 100 µM

Compound: COc1ccc2ncn(-c3cc(O[C@H](C)c4ccccc4Cl)c(C(N)=O)s3)c2c1
TGI: 0.54 µM

Compound: COC(=O)C1=C2SCc3cccc(c3)CSC3=C(C(=O)OC)SC(=C(S2)S1)S3
TGI: > 100 µM

Compound: COc1ccc(Nc2nc(NS(=O)(=O)c3cc(C)c(Cl)cc3S)n[nH]2)cc1
TGI: > 100 µM

Compound: CCOC(=O)c1ccc(N2C(=S)N(C(=O)c3ccccc3)C(=Nc3ccccc3)C2=Nc2ccccc2)cc1
TGI: > 100 µM

Compound: O=C1c2ccccc2CCCCCCCCCCC12OCCCO2
TGI: 83.8 µM

Compound: c1cc2nnnn2nc1N1CCCC1
TGI: > 100 µM

Compound: CCOC(=O)CNC(=O)c1ccccc1Nc1ccnc(C(F)(F)F)c1
TGI: 40.4 µM

Compound: NC(N)=NCCCCCNc1noc(Cc2c[nH]c3cc(Br)ccc23)n1
TGI: 16.2 µM

Compound: Cn1cc(C2=C(c3cn(CCCCCN)c4ccccc34)C(=O)NC2=O)c2ccccc21
TGI: > 19.7 µM

Compound: CC12CCCCC1(C)C2Sc1ccccc1 (stereo unspecified)
TGI: > 63.5 µM
